# Tested system: Melanocyte-stimulating hormone receptor (Homo sapiens, UniProt Q01726)
# Sequence (Q01726 whole entry): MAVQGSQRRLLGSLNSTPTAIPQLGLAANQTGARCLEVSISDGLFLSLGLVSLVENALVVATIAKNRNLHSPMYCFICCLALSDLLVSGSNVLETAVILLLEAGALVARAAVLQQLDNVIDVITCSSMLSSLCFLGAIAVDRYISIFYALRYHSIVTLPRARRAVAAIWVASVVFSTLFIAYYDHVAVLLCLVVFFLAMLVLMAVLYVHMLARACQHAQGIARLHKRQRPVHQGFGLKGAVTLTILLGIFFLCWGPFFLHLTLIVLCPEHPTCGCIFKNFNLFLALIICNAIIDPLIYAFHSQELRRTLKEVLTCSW
# Assay method text: Concentration for 50% inhibition of human melanocortin-1 receptor expressed in CHO cells using [125I]-NDP-alpha-MSH as radioligand
Measurement kind: IC50 (µM)
The reply should contain only the number, in µM.

Recorded IC50 (compound "CN1CCN[C@H](C(=O)N[C@H](Cc2ccc(F)cc2)C(=O)N2CCC(C(=O)NC(C)(C)C)(C3CCCCC3)CC2)C1" ): 1.7

---

# Assay method text: Half life at 1 mg/kg intravenous administration and 5 mg/kg peroral administration
# Assay type: ADME, organism-based
# Experimental setup: rat, in vivo
Measurement kind: half-life (h)
Write down the numeric answer in h and omit the unit.

// "CN1CCN[C@H](C(=O)N[C@H](Cc2ccc(F)cc2)C(=O)N2CCC(C(=O)NC(C)(C)C)(C3CCCCC3)CC2)C1" : half-life value = 1.6
